- Test system: MOLT-4 leukemia
- Assay remarks: NCI-60 one-dose screen, 48 h
- Condition info: 10 µM unless noted
Compounds without any hit were thinned out: in the full panel of roughly 83,000, 20% have a hit. Activity calls are given as the source filed them. Rule for the calls: active = growth percent below 10; inactive = the rest.
Log the outcome using a class from y (active), n (inactive)

{"Compound string": "CC(=O)CC(=O)SC1=NCCS1", "Label class": "n"}
{"Compound string": "COc1cccc(-c2[nH]c(=S)ncc2C(=O)c2ccccc2)c1", "Label class": "n"}
{"Compound string": "Nc1cc(N)c(N=Nc2ccc(S(=O)(=O)O)cc2)cc1N=Nc1ccc(-c2ccc(N=Nc3ccc(O)c(C(=O)O)c3)cc2)cc1", "Label class": "n"}
{"Compound string": "C=C(C)[C@@H]1CC[C@]2(C)[C@H](CC=C3[C@@H]4[C@@H](C)[C@H](C)CC[C@]4(C(N)=O)CC[C@]32C)[C@@]1(C)CCC#N", "Label class": "y"}
{"Compound string": "Cc1cc(N2CCCCCC2)nc(N2CCN(CC(=O)Nc3ccc4c(ccn4Cc4ccccc4)c3)CC2)n1", "Label class": "n"}

Query :: Tell me the recorded outcome of this test for `CC1(C)CC[C@]23CC[C@]4(C)[C@H](CC[C@@H]5[C@@]6(C)C/C(=C/c7cccnc7)C(=O)C(C)(C)[C@@H]6CC[C@]54C)[C@H]2[C@H]1OC3=O` .
Result :: n

Query :: Moving on to `CNc1cc(C(=O)O)nc(NC)n1`
Result :: n

Query :: Moving on to `COc1ncc(-c2ccc3nc(N)n(-c4ccccc4C(F)(F)F)c(=O)c3c2)cc1S(=O)(=O)Nc1ccc(F)cc1F`
Result :: n

Query :: Moving on to `CCCCOC(=O)c1cccc([N+](=O)[O-])c1`
Result :: n

###

- Test system: ACHN renal
- Assay remarks: NCI-60 one-dose screen, 48 h
- Condition info: 10 µM unless noted
The panel holds about 83,000 compounds, 20% with a hit somewhere; the sample as a whole holds those more often. Calls of active or inactive are those of the source. Rule for the calls: active = growth percent below 10; inactive = the rest.
Log the outcome using a class from label 1 = active, label 0 = inactive

Example entries and their recorded answers appear below.
{"Compound": "CC(C)C1=NOC(=O)C1=Cc1cn(-c2cccnc2)nc1-c1ccccc1", "Label class": "label 0"}
{"Compound": "CCCCCn1sc(=O)n(Cc2ccc(CNC(=O)OCc3ccc4cccc(O)c4n3)cc2)c1=O", "Label class": "label 1"}
{"Compound": "COC(=O)[C@H](CC(C)C)NC(=O)NC(=O)NC(=O)CI", "Label class": "label 0"}
{"Compound": "Cc1cc2c(C(C)C)c(O)c(O)c(C=NCc3ccoc3)c2c(O)c1-c1c(C)cc2c(C(C)C)c(O)c(O)c(C=NCc3ccco3)c2c1O", "Label class": "label 0"}
{"Compound": "CCCCOC(=O)c1cccc([N+](=O)[O-])c1", "Label class": "label 0"}

Query :: Tell me the recorded outcome of this test for `O=C(CCCSc1nc(-c2ccccc2)cc(-c2ccccc2)n1)NO` .
Result :: label 1

Query :: Moving on to `O=C1Nc2ccccc2/C1=C/C(=O)c1ccc(N2CCOCC2)cc1`
Result :: label 0

Query :: Moving on to `Cc1ccc2c(c1)/C(=N\N=C/c1cn(C(C)C)c3ccccc13)C(=O)N2`
Result :: label 0

Query :: Moving on to `O=C(CCN1CCCCC1)c1ccc2ccccc2c1`
Result :: label 0

Query :: Moving on to `O=C1/C(=C/c2cccc(OCc3ccccc3)c2)Oc2cc(OCCN3CCCCC3)ccc21`
Result :: label 0

Query :: Moving on to `COc1ccc(/C=C/C=C\C(=O)c2ccc(-n3ccnc3)cc2)cc1`
Result :: label 0

Query :: Moving on to `O=C(Nc1ccc(F)cc1)c1ccccc1`
Result :: label 0

Query :: Moving on to `CN(C)c1ccc(-c2ccc(-c3ccc(C(=N)N)cc3)s2)cc1`
Result :: label 1

Query :: Moving on to CC1Cc2c(Cl)ncnc2N(C)c2ccccc21 (stereo unspecified)
Result :: label 0

Query :: Moving on to `CCn1cc(-c2[nH]c(=S)ncc2-c2ccc(Cl)cc2)c(-c2ccc(Br)cc2)n1`
Result :: label 0

Query :: Moving on to `O=C(N/N=C\c1cc(Cl)ccc1O)N/N=C/c1cc(Cl)ccc1O`
Result :: label 0

Query :: Moving on to O=c1[nH]cnc2c1ccn2C1OC(CO)C(O)C1O (stereo unspecified)
Result :: label 0

Query :: Moving on to CC1Cc2c(Cl)ncnc2N(C)c2ccc(O)cc21 (stereo unspecified)
Result :: label 0

Query :: Moving on to `C[C@@H]1C[C@H]2C(=O)O[C@@H](C)[C@H](NC(=O)[C@H](Cc3cc(F)cc(F)c3)NC(=O)Nc3ccc(C4CC4)cc3F)C(=O)N3CCC[C@H]3C(=O)N3CCCC[C@H]3C(=O)N[C@@H](C)C(=O)N2C1`
Result :: label 0

Query :: Moving on to `CCN(CC)CCCOc1ccc2c(c1)O/C(=C\c1cccc(OC)c1)C2=O`
Result :: label 0

Query :: Moving on to `C[C@]12CCc3c(ccc4cc(O)ccc34)[C@@H]1CC[C@H]2O`
Result :: label 0

###

- System: SF-295 CNS
- Assay remarks: NCI-60 one-dose screen, 48 h (100 = growth as untreated, 0 = no growth, -100 = all killed)
- Condition info: 10 µM unless noted
The panel holds about 83,000 compounds, 20% with a hit somewhere; the sample as a whole holds those more often. Calls of active or inactive are those of the source. Rule for the calls: active = growth percent below 10; inactive = the rest.
Measured attribute: growth

Query :: What value of growth on SF-295 CNS does `COc1ccc(C=C2c3ccccc3-c3ccccc32)cc1` have?
Result :: 31.7% (inactive)

###

- Tested on: MDA-MB-435 melanoma
- Assay remarks: NCI-60 one-dose screen, 48 h
- Condition info: 10 µM unless noted
This is part of a sample that, as a whole, favours compounds with a hit. Of some 83,000 tested, about 20% had one in any assay. Active and inactive are the calls of the source. How the source made its calls: active means growth percent below 10; inactive means the rest.
Log the outcome using a class from active, inactive

Example entries and their recorded answers appear below.
{"Molecule": "O=C(N[C@@H]1CCCc2ccccc21)[C@H](CCC(=O)N1CCN(C2CCCCC2)CC1)N1C(=O)[C@@H](N2C(=O)OC[C@@H]2c2ccccc2)[C@H]1/C=C/c1ccccc1", "Label class": "active"}
{"Molecule": "O=C1CC(c2ccccc2)Cc2nc3ccc(Br)cc3cc21 (stereo not drawn)", "Label class": "active"}
{"Molecule": "CCOc1cc(NC(=O)c2ccccc2)c(OCC)cc1N", "Label class": "inactive"}
{"Molecule": "O=C(CSc1nc2ccc([N+](=O)[O-])cc2[nH]1)Nc1ccc(F)c(Cl)c1", "Label class": "inactive"}
{"Molecule": "CCOC(=O)COc1ccc2c(c1)O/C(=C\\c1ccc(O)cc1)C2=O", "Label class": "inactive"}

Query :: Tell me the recorded outcome of this test for `C=C(C)[C@@H]1CC[C@]2(C(=O)N3CCN(C)CC3)CC[C@]3(C)[C@H](CC[C@@H]4[C@@]5(C)C/C(=C/c6ccncc6)[C@H](O)C(C)(C)[C@@H]5CC[C@]43C)[C@@H]12` .
Result :: active

Query :: Moving on to `Cc1nc(Cl)cc(N(c2cc(Cl)nc(C)n2)c2ncc(C(=O)Nc3c(C)cccc3Cl)s2)n1`
Result :: inactive

Query :: Moving on to `O=C(Oc1ccc(Cl)cc1[N+](=O)[O-])Oc1ccc(Cl)cc1[N+](=O)[O-]`
Result :: inactive

###

- System: OVCAR-4 ovarian
- Assay remarks: NCI-60 one-dose screen, 48 h (100 = growth as untreated, 0 = no growth, -100 = all killed)
- Condition info: 10 µM
This is part of a sample that, as a whole, favours compounds with a hit. Of some 83,000 tested, about 20% had one in any assay.
Returns one of Fulfilled or Not fulfilled; Fulfilled when growth is >= 70%.

Example entries and their recorded answers appear below.
{"Compound": "CC[C@]1(O)CC2CN(CCc3c([nH]c4ccccc34)[C@@](C(=O)OC)(c3cc4c(cc3OC)N(C=O)[C@H]3[C@@](O)(C(=O)OC)[C@H](OC(C)=O)[C@]5(CC)C=CCN6CC[C@]43[C@@H]65)C2)C1 (stereo partly drawn)", "Label class": "Not fulfilled"}
{"Compound": "O=S(=O)(NCCCNc1nccc(-c2c(-c3cccc(F)c3)nc3occn23)n1)c1cccc2ccccc12", "Label class": "Not fulfilled"}

Now consider the entry below.
Query :: Form field: growth at least 70%? Entry: `Nc1ccc2c(c1)Cc1cc(NC(=O)C(F)(F)F)ccc1-2`
Result :: Fulfilled

###

- Tested on: MALME-3M melanoma
- Assay remarks: NCI-60 one-dose screen, 48 h
- Condition info: 10 µM unless noted
- Procedure: Cells are grown in 96 well plates and exposed to the test compound for 48 hours. Compounds are tested at a single concentration, which is 10^-5 M for most compounds. The reported endpoint is percent growth (GI% or GIPRCNT), where numbers from 0 - 100% represent growth inhibition, and numbers from -100% - 0 represent cell death. For example, a value of 40 represents 60% growth inhibition. A value of 0 means no net growth occurred over the course of the experiment. […]
The panel holds about 83,000 compounds, 20% with a hit somewhere; the sample as a whole holds those more often. Activity calls are given as the source filed them. Rule for the calls: active = growth percent below 10; inactive = the rest.
Log the outcome using a class from active, inactive

Query :: Tell me the recorded outcome of this test for `CCN=C1C=CC(=C(c2ccc(N(CC)CC)cc2)c2ccc(N(CC)CC)cc2)c2ccccc21` .
Result :: active

Query :: Moving on to `Cc1ccc(NC(=S)/N=c2/n(-c3ccccc3)nc3n2CCN3C2=NCCN2)cc1`
Result :: inactive

Query :: Moving on to `CN(C)c1ccc(-c2ccc(-c3ccc(C(=N)N)cc3)s2)cc1`
Result :: inactive

Source listed as PubChem BioAssay (NCI).
